Target: T1, human BMPR1B coated on MSD plates (construct not stated) (human, UniProt O00238 14-126, limits assumed)
T1 construct: also called BMPR1B receptor
T1 sequence: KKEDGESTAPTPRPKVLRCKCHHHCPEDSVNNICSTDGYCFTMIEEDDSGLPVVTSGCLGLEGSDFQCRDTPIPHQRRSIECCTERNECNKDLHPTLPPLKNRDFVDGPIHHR
Experiment: MSD ELISA, BMP4 blocked
Parameters: concentration or dose not given beside the values
measurement type: % inhibition (%)
Hi! Could you send only the number? It should be in %, unit omitted.

{"binder": "SC91.172 (antibody, V domains shown) VH: QVQLQQPGADLVKPGTSVKLSCKASGYTFTSYWMQWVKQRPGQGLEWIGEIDPSDTYTMYNQKFKGKATLTVDTSSSTAYMQLSSLTSEDSAVYYCARFGYYVDYWGQGTTLTVSS VL: DVVMTQTPLSLPVSLGDQASISCRSSQSLVHSTGNTYLHWYLQKAGQSPKLLIYKVSNRFSGVPDRFSGSGSGTDFTLKISRVEAEDLGVYFCSQSTHVPFTFGSGTKLEIK", "% inhibition (%)": 81}
{"binder": "SC91.149 (antibody, V domains shown) VH: QVQLLQPGAELVKPGSSVKVSCKASGYTFTNYWMQWVKQRPGQGLEWIGEIDPSDTYTLYNQKFKGKATLTVDTSSSTAYMQLSSLTSEDSAVYYCARFGYYVDYWGQGTTLTVSS VL: DVVMTQTPLSLPVSLGDQASISCRSSQSLVHSTGNTYFHWYLQKPGQSPELLIYKVSNRFSGVPDRFRGSGSGTDFTLKISRVEAEDLGVYFCSQSTHVPFTFGSGTKLEIK", "% inhibition (%)": 84}
{"binder": "SC91.19 (antibody, V domains shown) VH: QIQLVQSGPELKKPGETVKISCKASGYTFTTYGMNWVKQAPGKGLKWMGWINTYSGVPSSANDFKGRFAFSLETSASTAYLQINNLKNEDTATYFCARSELRNWYFDVWGTGTTVTVSS VL: SFVMTQTPKFLLVSAGDRVTITCKASQSVGNDVAWYQQKPGQSPKLLIYYASNRYTGVPDRFTGSGYGTDFTFTISTVQAEDLAVYFCQQDYSSPFTFGSGTKLEMK", "% inhibition (%)": 61}

Alright, here's another binder for you.
Q: // Input: SC91.160 (antibody, V domains shown) VH: QIQLVQSGPELKKPGETVKISCKASGYTFTTYGMNWVKQAPGKGLKWMGWINTYSGVPSSADDFKGRFAFSLETSASTAYLLINNLKNEDTATYFCARSELRNWYFDVWGTGTTVTVSS VL: SFVMTQTPKFLLVSAGDRVTITCKASQNMGHDVAWYQQKPGQSPKLLIYSASNRYTGVPDRFTGSGYGTDFTFTISTVQAEDLAVYFCQQDYSSPFTFGSGTKLEMK . Output its % inhibition only.
Result: 79
